Target: 5-hydroxytryptamine receptor 2A (Mus musculus)
Experiment: mouse Htr2a agonists via beta-arrestin recruitment, primary screen, cell-based, luminescence (AID 624169);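 also: 0% = plate median of compound wells and 100% = 30 µM serotonin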
Conditions: CHO-K1 mHTR2A beta-arrestin complementation, at 7.6 µM, stronger effect = higher value, percent of 30 µM serotonin response
Among all 360,000 compounds or so, about 2,400 (0.67%) were called active. Many of the other results were omitted from the sample, so actives are more common in it than they were.
RESULT_TYPE: activation (%)
Your answer is read as %, so omit the unit and give the number.

COMPOUND | SUBJECT_OF_TEST | activation (%)
CCCCn1nc(C(=O)Nc2cccc(C(=O)NC3CC3)c2)c2ccccc2c1=O | 5-hydroxytryptamine receptor 2A (Mus musculus) | 2.3
CCN(CCn1cccn1)Cc1nc(-c2ccc(C(=O)OC)cc2)no1 | 5-hydroxytryptamine receptor 2A (Mus musculus) | 2.48
O=C(NCc1ccco1)/C(=C/c1ccco1)NC(=O)c1ccccc1 | 5-hydroxytryptamine receptor 2A (Mus musculus) | 2.71
COc1ccc(OCCCC(=O)OC(C)C(=O)Nc2ccccc2[N+](=O)[O-])cc1 (stereo unspecified) | 5-hydroxytryptamine receptor 2A (Mus musculus) | 9.6
O=C1CCCc2c1[nH]c1ccc(Br)cc21 | 5-hydroxytryptamine receptor 2A (Mus musculus) | 1.31

As a next step, examine the compound that follows.
(Q) Report activation for O=C(c1cccs1)n1nc(NCc2ccccc2)nc1NCc1ccccc1 please.
(A) -1.74
